- target.system: T1, human MSLN-FL-his protein (human, UniProt Q13421 296-580)
- T1 construct: made in HEK293E cells, purified on nickel column; also called hMSLN-FL-his; human MSLN full-length protein; not shown: His tag
- T1 sequence (Q13421 other isoform, or with tags, fused parts or gaps): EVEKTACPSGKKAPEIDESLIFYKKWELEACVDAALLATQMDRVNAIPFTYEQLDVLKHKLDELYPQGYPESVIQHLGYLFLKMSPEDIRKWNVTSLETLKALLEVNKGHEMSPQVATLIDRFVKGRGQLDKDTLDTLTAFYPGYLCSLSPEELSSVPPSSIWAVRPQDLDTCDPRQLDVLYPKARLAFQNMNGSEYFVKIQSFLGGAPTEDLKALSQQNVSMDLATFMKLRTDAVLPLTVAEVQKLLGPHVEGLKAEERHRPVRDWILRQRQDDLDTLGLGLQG
- assay.overview: SPR (Biacore), antibody captured on Protein A chip;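 further: flow cell at 25 °C, antigen injected for 240 s at five concentrations from 200 nM downward, dissociation followed up to 600 s, double-referenced, fitted with Langmuir 1:1 model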
Each entry gets criterion not met if its kon stays under 700000 M⁻¹ s⁻¹, and criterion met if its kon is 700000 M⁻¹ s⁻¹ or above.

{"binder": "S009-F7.23.19 (antibody, human IgG1, kappa, V domains shown, human-murine chimeric antibody, human IgG1/kappa constant regions) VH: EVKLVESGGGLVQPGGSLSLSCAASGFTFTDYYMSWVRQPPGKALEWLGFIRSKANAYTTEYSASVKGRFTISRDNSQSILYLQMNDLRAEDSATYYCARYYYYGSGYVWYFDVWGTGTTVTVSS VL: DIVMTQSQKFMSTSVGDRVSVTCKASQSVGTNVAWYQQKPGQFPKALIYSASYRYSGVPDRFTGSGSGTDFTLTIINVQSEDLAEYFCQQYNSYPLTFGAGTKLELKR", "assigned.category": "criterion not met"}
{"binder": "S009-F7.6.17 (antibody, human IgG1, kappa, V domains shown, human-murine chimeric antibody, human IgG1/kappa constant regions) VH: QVQLQQSGAELARPGASVKMSCKASGYTFTTYTMHWVKQRPGQGLEWIGYISPTGDFTKYNQKFKDKATLTTDKSSNTAFMQLSSLTSEDSAVYYCARWNGTVWFAYWGQGTLVTVSA VL: DIVMTQSQKFMSTSVGDRVTVTCKASQALGTNVAWYQQKPGQSPKVLIYSASYRYSGVPYRFAGGGSGTDFTLTITNVQSEDLAEYFCQQYNNYPLTFGAGTKLELKR", "assigned.category": "criterion not met"}
{"binder": "S009-F7.67.12 (antibody, human IgG1, kappa, V domains shown, human-murine chimeric antibody, human IgG1/kappa constant regions) VH: QVQLQQPGTELVKPGASVRLSCRASGYSFSSYWMHWVKQRPGQGLEWLGNINPTTGDINYNEKFRNRATLAVDKSSTTAYLQLTSLTSEDSAVYFCVRHDGFLWGQGTTLTVSS VL: DIQMTQSPASLSASVGETVTITCRASENIYSYLAWYQQKQGKSPQLLVYYAKTLAEGVSSRFSGSGSGTQFSLKINSLQPEDFGTYYCQHQFGTPRTFGGGTKLEIRR", "assigned.category": "criterion met"}
{"binder": "S009-F8-4.5 (antibody, human IgG1, kappa, V domains shown, human-murine chimeric antibody, human IgG1/kappa constant regions) VH: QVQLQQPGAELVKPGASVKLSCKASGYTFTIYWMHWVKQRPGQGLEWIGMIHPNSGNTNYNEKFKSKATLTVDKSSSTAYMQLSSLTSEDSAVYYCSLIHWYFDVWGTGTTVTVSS VL: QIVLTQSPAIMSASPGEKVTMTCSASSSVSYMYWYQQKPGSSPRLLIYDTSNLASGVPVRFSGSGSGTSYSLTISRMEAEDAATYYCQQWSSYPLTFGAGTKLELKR", "assigned.category": "criterion met"}

// inclusive: kon at least 700000 M⁻¹ s⁻¹? input: S009-F8-7.5 (antibody, human IgG1, kappa, V domains shown, human-murine chimeric antibody, human IgG1/kappa constant regions) VH: DVQLQESGPGLVKPSQSLSLTCSVTGYSITSGYYWNWIRQFPGNKLEWMAYIRYDGSNNYNPSLKNRISIIRDTSKNQFFLRLNSVTTEDTATYYCAKSYYGMDDWGQGISVTVSS VL: DIQMTQSPASLSASVGETVTITCRTSGDIHNYLAWYQQKQGKSPQLLVYKAKTLENGVPSRFTGSGSGTQFSLKIDSLQPEDFGTYYCQHFWTTPYTFGGGTKLEIKR
criterion not met

Value source: patent US20250250357A1
